FYI, the data here is from patent US20140112915A1.

- Target Or System: T1, Native human IL-18 (human, UniProt Q14116 37-193)
- T1 sequence: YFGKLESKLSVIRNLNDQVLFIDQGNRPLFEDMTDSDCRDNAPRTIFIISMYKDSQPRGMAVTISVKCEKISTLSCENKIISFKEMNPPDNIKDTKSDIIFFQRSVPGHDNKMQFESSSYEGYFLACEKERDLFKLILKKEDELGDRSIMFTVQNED
- Protocol Description: cell-based or functional assay
Could you mark each record Met if its IC50, inhibition of IFN-γ release, human whole blood, LPS/IL-12 (native IL-18) falls strictly under 20 nM, and Not met if it equals or exceeds it?

Binder: MOR9464_N30R (antibody, human IgG1, lambda, L234A L235A, V domains shown) VH: EVQLVQSGAEVKKPGSSVKVSCKASGGTFRSYAISWVRQAPGQGLEWMGNIIPMTGQTYYAQKFQGRVTITADESTSTAYMELSSLRSEDTAVYYCARAAYHPLVFDNWGQGTLVTVSS VL: DIVLTQPPSVSGAPGQRVTISCSGSSSNIGNHYVNWYQQLPGTAPKLLIYRNNHRPSGVPDRFSGSKSGTSASLAITGLQSEDEADYYCQSWDYSGFSTVFGGGTKLTVLG
Class Assignment: Met
--
Binder: MOR10222 (antibody, human IgG1, lambda, L234A L235A, V domains shown) VH: EVQLVQSGAEVKKPGSSVKVSCKASGGTFNSYAISWVRQAPGQGLEWMGNIIPMTGQTYYAQKFQGRVTITADESTSTAYMELSSLRSEDTAVYYCARAAYHPLVFDNWGQGTLVTVSS VL: QSVLTQPPSASGTPGQRVTISCSGSSSNIGNHYVNWYQQLPGTAPKLLIYRNNHRPSGVPDRFSGSKSGTSASLAISGLQSEDEADYYCQSWDYSGFSTVFGGGTKLTVLG
Class Assignment: Not met

Qu. A record lists MOR09441 (antibody, human IgG1, lambda, L234A L235A, V domains shown, also called MOR9441) VH: EVQLVQSGAEVKKPGSSVKVSCKASGGTFNSYAISWVRQAPGQGLEWMGWINPFYIGETFYAQKFQGRVTITADESTSTAYMELSSLRSEDTAVYYCARAAYHPLVFDNWGQGTLVTVSS VL: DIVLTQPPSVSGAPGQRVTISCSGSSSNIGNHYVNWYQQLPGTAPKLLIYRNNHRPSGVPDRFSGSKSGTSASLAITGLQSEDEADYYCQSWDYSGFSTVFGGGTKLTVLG . Is its IC50, inhibition of IFN-γ release, human whole blood, LPS/IL-12 (native IL-18) below 20 nM?
Ans. Met

Qu. Would you kindly repeat that for MOR13342 (antibody, human IgG1, kappa, L234A L235A, V domains shown) VH: QVQLVQSGAEVKKPGSSVKVSCKASGGTFSTFSISWVRQAPGQGLEWMGGIIPIFGTANYAQKFQGRVTITADESTSTAYMELSSLRSEDTAVYYCARGGYGGYYYFDYWGQGTLVTVSS VL: DIQMTQSPSSLSASVGDRVTITCRASQSISNRLNWYQQKPGKAPKLLIYKGSTLQSGVPSRFSGSGSGTDFTLTISSLQPEDFATYYCQQHYVWSTTFGQGTKVEIKR ?
Ans. Not met
